Value source: PubChem BioAssay (NCATS)

Potency values for the compounds below.
# assay: Quantitative High-Throughput drug screen in 47 multiple myeloma cell lines against the NCATS MIPE library collection: INA6_PLB cell viability assay (AID 1918965; note: potency is the fitted concentration of half-maximal effect; nearly all actives have a fitted effect of over 55% in size)
# conditions: INA6 myeloma viability, CellTiter-Glo ATP luminescence, 48 h; series mostly up to 45.8 µM
Results filed as inconclusive are left out. Calls of active or inactive are those of the source. Calls come from the whole dose curve; as a rule, active = well fitted cell-killing curve with a large enough effect; inconclusive = small, poorly fitted or top-dose-only effect, or effect the other way; inactive = no such curve, though single readings can be large or run the other way.

Record excerpt, results attached:
molecule_smiles | Potency
CCN(CC)CCNC(=O)c1ccc2nc(-c3ccccc3)c(-c3ccc(CN4CCC(n5c(=O)[nH]c6ccccc65)CC4)cc3)nc2c1 | 296 nM (active)
CC(C)C[C@H](NC(=O)CNC(=O)c1cc(Cl)ccc1Cl)B(O)O | 37.2 nM (active)
CNC(=O)c1nn(C)c2c1C(C)(C)Cc1cnc(Nc3ccc(N4CCN(C)CC4)cc3)nc1-2 | 743 nM (active)

Query: Look up Potency for this compound: `C[C@@H]1CN(CC(=O)Nc2ccc3c(c2)Cc2cccc(-c4cc(=O)cc(N5CCOCC5)o4)c2S3)C[C@H](C)O1`
Reply: 11800 nM (active)

Query: Would you kindly repeat that for `COc1cc2c(Nc3ccc(NC(=O)c4ccccc4)cc3)ncnc2cc1OCCCN1CCOCC1` ?
Reply: 11800 nM (active)

###

# assay: Cytotoxicity counterscreen for NFkB agonists and antagonists (AID 624476);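 note: cells exposed to compound for 48 hours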
# conditions: NFkB reporter cell line viability counterscreen; series mostly up to 46.1 µM
Results filed as inconclusive are left out. Active and inactive are the calls of the source. Calls follow the shape of the dose curve; as a rule, active = well fitted curve in the direction sought with a large enough effect; inconclusive = small, poorly fitted or top-dose-only effect, or another doubt; inactive = no such curve, though single readings can be large or run the other way.
Write down the outcome that applies. Available outcomes: active, inactive

Example cases with answers are listed next.
molecule_smiles | classification
O=C(NCCS(=O)(=O)c1ccc(C(F)(F)F)cn1)c1ccc(Cl)cc1 | inactive
CC(C)c1ccc(Cn2ccc3c4c(N)nc(NC5CC5)nc4ccc32)cc1 | active

Could you now consider this next compound?
Query: Please share the test call associated with `CC(C)C[C@H](NC(=O)CNC(=O)c1cc(Cl)ccc1Cl)B(O)O` .
Reply: active

###

# assay: qHTS Screen of the MIPE 4.0 Collection Against Ewings Sarcoma (EW8) (AID 1259255); note: nearly all actives have a fitted effect of over 35% in size
# conditions: EW8 Ewing sarcoma viability, CellTiter-Glo, 48 h; series mostly up to 45.8 µM
Inconclusive results are not listed. Active and inactive are the calls of the source. Calls follow the shape of the dose curve; as a rule, active = well fitted inhibition curve with a large enough effect; inconclusive = small, poorly fitted or top-dose-only effect; inactive = no such curve, though single readings can be large or run the other way.
Write down the outcome that applies. Available outcomes: true for active, false for inactive

molecule_smiles | classification
CC(C)CC(=O)Nc1n[nH]c2c1CN(C(=O)C1CCN(C)CC1)C2(C)C | true
Cc1ccc2nc(NC(=O)CSc3nc4c(c(=O)n3-c3ccccc3)SCC4)sc2c1 | true
O=C(O)CCCc1c[nH]c2ccccc12 | false

Query: Please share the test call associated with `CN(C)c1nc(Cc2ccc(NC(=O)c3ccc4ccccc4c3)cc2)nc(Cl)c1CC(=O)O` .
Reply: false

Query: Would you kindly repeat that for `COCCOc1ccc2c(c1)ncn2-c1ccc2cccc(N3CCC(N)CC3)c2n1` ?
Reply: true

Query: Would you kindly repeat that for `Nc1nccc(Oc2ccc(NC(=O)c3c[nH]cc(-c4ccc(F)cc4)c3=O)cc2F)c1Cl` ?
Reply: true

###

# target_or_system: Tyrosine-protein kinase Yes (Homo sapiens)
# assay: qHTS for small molecule inhibitors of Yes1 kinase: Primary Screen (AID 686947); note: nearly all actives have a fitted effect of over 60% in size
# conditions: Yes1 kinase biochemical qHTS inhibition; series mostly up to 76.9 µM
Results filed as inconclusive are left out. Activity calls are given as the source filed them. Calls follow the shape of the dose curve; as a rule, active = well fitted inhibition curve with a large enough effect; inconclusive = small, poorly fitted or top-dose-only effect; inactive = no such curve, though single readings can be large or run the other way.
Write down the outcome that applies. Available outcomes: active, inactive

Example cases with answers are listed next.
compound | classification
CC(=O)OCC(=O)[C@@]1(O)[C@H](C)C[C@H]2[C@@H]3C=C(C)C4=Cc5c(cnn5-c5ccccc5)C[C@]4(C)[C@@H]3[C@@H](O)C[C@@]21C | inactive
CC(C)[C@H](C(=O)Nc1ccc(C(=O)NO)cc1)c1ccccc1 | inactive
N#CCNC(=O)c1ccc(-c2ccnc(Nc3ccc(N4CCOCC4)cc3)n2)cc1 | active

Query: Please share the test call associated with `CC1=C(CO)C(=O)O[C@@H]([C@@H](C)[C@H]2CC[C@H]3[C@@H]4C[C@H]5O[C@]56[C@@H](O)C=CC(=O)[C@]6(C)[C@@H]4CC[C@]23C)C1` .
Reply: inactive

Query: Would you kindly repeat that for `CC(=O)OCCN1C(=O)c2c(C)nc3ccc(S(=O)(=O)N4CCOCC4)cc3c2C1=O` ?
Reply: inactive

Query: Would you kindly repeat that for `Cc1cnc(Nc2ccc(F)cc2Cl)nc1-c1c[nH]c(C(=O)N[C@H](CO)c2cccc(Cl)c2)c1` ?
Reply: inactive

Query: Would you kindly repeat that for C=C1C(=CC=C2CCCC3(C)[C@@H]([C@H](C)C=CC=CC(O)(CC)CC)CC[C@@H]23)C[C@@H](O)C[C@@H]1O (stereo not given in full) ?
Reply: inactive
